# assay.explanation: inhibitors of TNFa-induced NFkB p65 translocation, primary screen, imaging, HUVEC, MLSMR starter and 10KST1 sets (AID 438);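 also: compound added about 3h40 before a 20 min TNFalpha stimulation; signal is the nuclear over cytoplasmic p65 intensity ratio per well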
# condition.description: HUVEC TNFa-induced p65 nuclear translocation; at 2 µM, hits give high values, 0% TNFa-plus-vehicle, 100% no-TNFa wells
measure: inhibition (%)
One number for each entry, in %.

molecule=O=C(Nc1nc2c(s1)CCc1ccccc1-2)c1cccs1 unit_label=% measurement=-3.6
molecule=Cc1ccc(-c2cc(C(=O)Nc3cc(C)on3)c3ccccc3n2)c(C)c1 unit_label=% measurement=1.1
molecule=CCOc1nc(-c2ccccc2)ccc1-c1noc(-c2ccc(OC)c(OC)c2)n1 unit_label=% measurement=11.7
molecule="CCNC(=O)CC1C(=O)N(c2ccccc2)C(=O)N1CCC(C)C (stereo not given)" unit_label=% measurement=2.8

// batch mode: one inhibition value per listed entry
1. COCCn1c(SCC(=O)Nc2cccc(OC)c2)nnc1-c1ccc(Cl)cc1
2. COc1ccc(Cl)cc1Nc1nc(NCCO)nc(N2CCCC2)n1
3. Cn1c(C(=O)NCCN2CCN(c3ccccc3F)CC2)cc2c(=O)n(C)c3ccccc3c21
4. COc1ccccc1S(=O)(=O)Cc1ccc(C(=O)N2CCN(c3ccc(C)cc3)C(C)C2)o1 (stereo not given)
5. CCn1c(SCC(=O)Nc2cccc(C)c2)nc2c(c1=O)SC(C)C2 (stereo not given)

Key:
1: 6.7; 2: -4.3; 3: 11; 4: 6.1; 5: -3.4

Exercise: Could you share which inhibition value was measured for COc1cccc(C2C3=C(N=C4SCC(=O)N42)c2ccccc2CC3)c1OC (stereo not given) ?
Key: 1.6

###

# study.target: Voltage-gated potassium channel subunit beta-2 (Rattus norvegicus) (UniProt P62483)
# Sequence (P62483 whole entry, looked up): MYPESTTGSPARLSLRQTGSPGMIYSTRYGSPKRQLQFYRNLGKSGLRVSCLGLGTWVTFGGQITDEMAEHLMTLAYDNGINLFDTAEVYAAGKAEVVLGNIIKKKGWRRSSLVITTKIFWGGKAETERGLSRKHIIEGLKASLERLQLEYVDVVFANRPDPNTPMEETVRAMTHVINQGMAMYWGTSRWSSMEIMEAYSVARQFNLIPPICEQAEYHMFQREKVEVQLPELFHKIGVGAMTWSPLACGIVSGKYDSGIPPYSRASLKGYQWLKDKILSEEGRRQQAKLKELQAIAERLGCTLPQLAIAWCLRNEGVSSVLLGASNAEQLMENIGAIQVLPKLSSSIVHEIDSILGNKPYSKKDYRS
# assay.explanation: enhancers of rat Kvbeta2 NADPH turnover – biochemical, NADPH fluorescence, primary screen (AID 623);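 also: fluorescence intensity change per second fitted from 20 to 320 s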
# condition.description: Recombinant KvBeta, NADPH fluorescence decrease slope, 10 min; at 10 µM; hits give low values
Please provide measured NADPH fluorescence slope for the entries that follow.
Give bare numbers.

compound="NC(=O)CN1C(=O)C(O)(CC(=O)c2ccccc2O)c2ccccc21 (stereo unspecified)" measurement=-4.6e-05
compound=Cc1oc2cc3c(C(=O)OCCN(C)C)c(C)oc3cc2c1C(=O)OCCN(C)C measurement=-3.3e-05
compound=O=C(Nc1nnc(CCN2CCCCC2)s1)C1CCCCC1 measurement=-6e-05
compound="CCOC(=O)C1CSC(CC(=O)Nc2ccc(Cl)cc2)C(=O)N1 (stereo unspecified)" measurement=-4.9e-05
compound="Cc1ccc(N2CC(C)Cn3c2nc2c3c(=O)n(CC(=O)OCc3ccccc3)c(=O)n2C)cc1C (stereo unspecified)" measurement=-2.8e-05
compound="CC1(c2ccc(Cl)cc2)NC(=O)N(CC(=O)NC(=O)NCc2ccco2)C1=O (stereo unspecified)" measurement=-4.4e-05
compound=Cc1ccc(C(C)C)c(OCCn2c(=O)oc3ccccc32)c1 measurement=2.5e-05
compound=C=CCN1C(=O)CS/C1=N/c1nccs1 measurement=-1.1e-05

// batch mode: one NADPH fluorescence slope value per listed entry
1. C[C@@H]1C[C@H](O)c2cc(Cl)ccc2N1
2. COc1ccc(-c2nnc(-c3ccc(N)cc3)o2)cc1
3. CCOC(=O)c1cc2sc(C)cc2n1CC(=O)Nc1cccc(C)c1C

Key:
1: -1.8e-05; 2: -2.2e-05; 3: -3.2e-05
